target: UniProt:P10275; test: AR Antagonist Cell Assay (MMTV-luciferase reporter, inhibition of DHT induction); format: cell-based; conditions: MDA-MB453-MMTV clone 54-19 cells, 100 pM DHT, 17 hr, luciferase; read-out: Cell IC50
Sequence (P10275 whole entry Q868H, form open): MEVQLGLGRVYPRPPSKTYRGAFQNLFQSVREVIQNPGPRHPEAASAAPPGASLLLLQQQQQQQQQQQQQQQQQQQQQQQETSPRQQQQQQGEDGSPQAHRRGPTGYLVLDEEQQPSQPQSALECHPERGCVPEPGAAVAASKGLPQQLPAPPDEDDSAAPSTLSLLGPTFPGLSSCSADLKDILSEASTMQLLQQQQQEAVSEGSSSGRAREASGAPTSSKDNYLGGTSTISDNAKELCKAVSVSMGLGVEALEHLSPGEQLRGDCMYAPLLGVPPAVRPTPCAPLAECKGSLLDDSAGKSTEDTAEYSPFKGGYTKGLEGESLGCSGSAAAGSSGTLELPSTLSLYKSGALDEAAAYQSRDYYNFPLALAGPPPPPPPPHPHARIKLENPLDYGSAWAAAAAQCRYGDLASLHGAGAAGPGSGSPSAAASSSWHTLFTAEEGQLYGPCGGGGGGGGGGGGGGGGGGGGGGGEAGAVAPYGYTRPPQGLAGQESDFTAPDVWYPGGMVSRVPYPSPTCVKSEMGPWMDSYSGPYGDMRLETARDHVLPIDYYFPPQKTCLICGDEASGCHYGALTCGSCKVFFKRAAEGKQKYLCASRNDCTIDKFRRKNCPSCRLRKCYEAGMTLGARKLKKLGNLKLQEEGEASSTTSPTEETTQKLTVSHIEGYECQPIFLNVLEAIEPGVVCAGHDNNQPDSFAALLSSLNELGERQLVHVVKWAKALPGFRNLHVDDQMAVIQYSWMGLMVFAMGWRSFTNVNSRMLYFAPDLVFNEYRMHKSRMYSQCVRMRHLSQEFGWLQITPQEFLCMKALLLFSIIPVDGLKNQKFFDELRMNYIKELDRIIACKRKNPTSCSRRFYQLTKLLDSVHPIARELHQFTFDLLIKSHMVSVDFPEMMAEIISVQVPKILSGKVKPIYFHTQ
Observable: IC50 (µM)

| Compound | Observed measurement |
| --- | --- |
| O=c1cc(C(F)(F)F)c2cc(S(=O)(=O)N3CCCC3CN3CCCC3)ccc2[nH]1 (centres unmarked) [Example 41] | 3.6 |
| O=c1cc(C(F)(F)F)c2cc(S(=O)(=O)N3CCN(Cc4ccco4)CC3)ccc2[nH]1 [Example 17] | 2.96 |
| O=c1cc(C(F)(F)F)c2cc(S(=O)(=O)N3CCCC3CO)ccc2[nH]1 (centres unmarked) [Example 30] | 2.17 |

A. COC(=O)[C@@H]1CCCN1S(=O)(=O)c1ccc2[nH]c(=O)cc(C(F)(F)F)c2c1 [Example 19]
B. O=c1cc(C(F)(F)F)c2cc(S(=O)(=O)N3CCCC(CO)C3)ccc2[nH]1 (centres unmarked) [Example 25]
Data request: Which entry has a larger number for IC50, A or B ? When you have decided, please share the label of that item.
Data returned: B
